- target-desc: VIM-2 (Escherichia coli, UniProt Q5U7L7)
- protocol-text: Inhibitory activity on MBL, fluorescent substrate FC-5
- Type: biochemical
- assay-setup: read-out: Inhibitory activity on MBL VIM-2 (IC50 class)
Exercise: state measured IC50 for each of the compounds provided.

Fill in IC50 for each of the 5 compounds listed.
1. N=C(N)NCCc1cnn(Cc2ccc3c(c2C(=O)O)OB(O)CC3)c1
2. CO[C@H]1Cc2ccc(Cn3cc(CN)cn3)c(C(=O)O)c2OB1O
3. O=C(O)c1c(Cn2cc([N+](=O)[O-])cn2)ccc2c1OB(O)CC2
4. O=C(O)c1c(Cn2cc(CN3CCCC3)nn2)ccc2c1OB(O)CC2
5. N#Cc1cnn(Cc2ccc3c(c2C(=O)O)OB(O)CC3)c1

1. 1000 to 100000 nM
2. 10 to 1000 nM
3. 10 to 1000 nM
4. 10 to 1000 nM
5. 10 to 1000 nM

Fill in IC50 for each of the 4 compounds listed.
1. O=C(O)c1c(Cn2cc3c(n2)CNC3)ccc2c1OB(O)C=C2
2. N[C@H]1CC(=O)N(Cc2ccc3c(c2C(=O)O)OB(O)CC3)C1
3. NCc1cn(Cc2ccc3c(c2C(=O)O)OB(O)CC3)nn1
4. NCCc1cn(Cc2ccc3c(c2C(=O)O)OB(O)CC3)nn1

1000 to 100000 nM
1000 to 100000 nM
1000 to 100000 nM
10 to 1000 nM

---

Exercise: state measured IC50 for each of the compounds provided.
- target-desc: VIM-2 (Escherichia coli)
- protocol-text: Inhibitory activity on MBL, fluorescent substrate FC-5
- Assay type: biochemical
- assay-setup: read-out: Inhibitory activity on MBL VIM-2 (IC50 class)

Reference set (3 entries):
{"compound": "O=C(O)c1c(CNc2nncs2)ccc2c1OB(O)CC2 [Comparative example 1 compound 64, reference compound]", "assay-readout": "IC50", "result-value": "1 to 100 µM"}
{"compound": "C[C@]1(Cn2ccnn2)[C@H](C(=O)O)N2C(=O)C[C@H]2S1(=O)=O [Tazobactam, reference compound]", "assay-readout": "IC50", "result-value": "> 100 µM"}
{"compound": "NCCNc1cnn(Cc2ccc3c(c2C(=O)O)OB(O)CC3)c1", "assay-readout": "IC50", "result-value": "0.01 to 1 µM"}

Fill in IC50 for each of the 5 compounds listed.
1. N=C(N)NCCc1cn(Cc2ccc3c(c2C(=O)O)OB(O)CC3)nn1
2. NC(=O)[C@@H]1CC[C@@H]2CN1C(=O)N2OS(=O)(=O)O [Avibactam, reference compound]
3. O=C(O)c1c(Cn2ccnc2)ccc2c1OB(O)CC2
4. NCc1cnn(Cc2ccc3c(c2C(=O)O)OB(O)[C@@H](Sc2nncs2)C3)c1
5. NC1CN(Cc2cnn(Cc3ccc4c(c3C(=O)O)OB(O)CC4)c2)C1

1: 0.01 to 1 µM; 2: > 100 µM; 3: 0.01 to 1 µM; 4: 0.01 to 1 µM; 5: > 100 µM

---

- target-desc: NDM-5 (Klebsiella pneumoniae, UniProt C7C422, M154L/V88L)
- Sequence (C7C422 29-270 V88L/M154L): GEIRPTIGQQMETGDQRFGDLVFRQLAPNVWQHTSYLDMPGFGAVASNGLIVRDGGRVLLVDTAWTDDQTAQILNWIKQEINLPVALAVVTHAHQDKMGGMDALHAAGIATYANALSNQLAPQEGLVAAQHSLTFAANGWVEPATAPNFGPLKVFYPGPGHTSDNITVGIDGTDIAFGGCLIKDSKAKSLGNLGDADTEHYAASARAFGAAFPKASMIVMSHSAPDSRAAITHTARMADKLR
- protocol-text: Inhibitory activity on MBL, fluorescent substrate FC-5
- Assay type: biochemical
- assay-setup: read-out: Inhibitory activity on MBL NDM-5 (IC50 class)
Exercise: state measured IC50 for each of the compounds provided.

Reference set (3 entries):
{"compound": "O=C(O)c1c(Cn2ncc3ccccc32)ccc2c1OB(O)CC2", "target-desc": "NDM-5 (Klebsiella pneumoniae, UniProt C7C422, M154L/V88L)", "IC50": "0.01 to 1 µM"}
{"compound": "NC(=O)[C@@H]1CC[C@@H]2CN1C(=O)N2OS(=O)(=O)O [Avibactam, reference compound]", "target-desc": "NDM-5 (Klebsiella pneumoniae, UniProt C7C422, M154L/V88L)", "IC50": "> 100 µM"}
{"compound": "O=C(O)c1c(Cn2cc([N+](=O)[O-])cn2)ccc2c1OB(O)CC2", "target-desc": "NDM-5 (Klebsiella pneumoniae, UniProt C7C422, M154L/V88L)", "IC50": "0.01 to 1 µM"}

Fill in IC50 for each of the 5 compounds listed.
1. N#Cc1cccn1Cc1ccc2c(c1C(=O)O)OB(O)CC2
2. Nc1ncc(-c2cn(Cc3ccc4c(c3C(=O)O)OB(O)CC4)nn2)cn1
3. N=C(N)Nc1cnn(Cc2ccc3c(c2C(=O)O)OB(O)CC3)c1
4. N=C(N)NCCc1cnn(Cc2ccc3c(c2C(=O)O)OB(O)CC3)c1
5. O=C(O)c1c(Cn2cc(C3CNC3)nn2)ccc2c1OB(O)CC2

1: 1 to 100 µM; 2: 0.01 to 1 µM; 3: 0.01 to 1 µM; 4: 0.01 to 1 µM; 5: 1 to 100 µM

For the compound shown here, "N=C(N)NCCCc1cn(Cc2ccc3c(c2C(=O)O)OB(O)CC3)nn1" , give the reported IC50. 0.01 to 1 µM
